# Target Of Assay: LIGHT without residues 81-84, stably expressed on EL4 cells (EL4-NC-LIGHT)
# Experimental Protocol: cell-based or functional assay
Readout: IC50, inhibition of IL-8 secretion, HT-29 + EL4-NC-LIGHT cells (nM)
Give just the numeric value; nM need not be written.

The binder identified as 3B04 chimeric IgG4 mAb (antibody, V domains shown, also called Parental 3B04) VH: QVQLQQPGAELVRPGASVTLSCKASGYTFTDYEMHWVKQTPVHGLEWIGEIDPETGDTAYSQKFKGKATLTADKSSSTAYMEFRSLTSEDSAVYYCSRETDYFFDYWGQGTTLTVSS VL: DIQMTQTPASLSASVGETVTITCGASENIYGALNWYQRKQGKSPQLLIYGATNLADGMSSRFSGSGSGRQYSLKISSLHPDDFATYYCQNVLTTPWTFGGGTKLEIK registered its IC50, inhibition of IL-8 secretion, HT-29 + EL4-NC-LIGHT cells at 0.05

The binder identified as 3D12_var11 (antibody, V domains shown) VH: QVQLVQSGAEVKKPGASVKVSCKASDYTFTDSEIHWVRQAPGQGLEWMGEIDPETGGTAYAQKFQGRVTLTADKSTSTAYMELSSLRSEDTAVYYCSRETDYFFDYWGQGTLVTVSS VL: DIQMTQSPSSLSASVGDRVTITCGASENIYGALNWYQQKPGKAPKLLIYGATNLADGVPSRFSGSGSGRDYTLTISSLQPEDVATYYCQNVLSTPWTFGQGTKLEIKR registered its IC50, inhibition of IL-8 secretion, HT-29 + EL4-NC-LIGHT cells at 0.55

The binder identified as 3D12 chimeric IgG4 mAb (antibody, V domains shown, Chimeric human IgG4 (S-to-P, L-to-E) with human CL, as m1; also called Parental 3D12; 03D12) VH: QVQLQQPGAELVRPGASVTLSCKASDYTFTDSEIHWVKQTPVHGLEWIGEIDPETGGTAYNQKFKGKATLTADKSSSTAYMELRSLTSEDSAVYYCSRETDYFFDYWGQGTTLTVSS VL: DIQMTQSPASLSASVGETVTITCGASENIYGALNWYQRKQGKSPQLLIYGATNLADGMSSRFSGSGSGRQYSLKISSLHPDDVATYYCQNVLSTPWTFGGGTKLEIK registered its IC50, inhibition of IL-8 secretion, HT-29 + EL4-NC-LIGHT cells at 0.32
